- assayProcedure: qHTS Assay for Spectroscopic Profiling in 4-MU Spectral Region
- protocolConditions: compound autofluorescence, 340/450 nm, 4-MU equivalents; hits give high values
- From the text: NIH Molecular Libraries Screening Centers Network [MLSCN] NIH Chemical Genomics Center [NCGC] […] While the most informative fluorescent profiling data set is obtained by performing a full excitation and emission scan of each well by using a monochromator-based plate reader, such an approach is practical only on a very limited scale as scanning each well requires long time. […]
The campaign covered roughly 59,000 compounds. About 6,200 (11%) were called active. Roughly 9% stayed inconclusive and do not appear here. This is one part of a sample in which actives are shown more often than they occur.
metricName: max dye-equivalent concentration

Answered examples (5):
- COc1ccc(N2C(=O)c3cccc4cccc(c34)C2=O)nn1: 160 nM (active)
- COc1ccc(OCCCON2C(=O)c3ccccc3C2=O)cc1: inactive
- CCCCOc1ccccc1/C=c1/sc2nc(-c3oc4ccccc4c3C)nn2c1=O: inactive
- COc1ccccc1-c1nc(N2CCN(C)CC2)c2ccccc2n1: inactive
- Cc1c(NC(=O)c2coc(=O)c(Br)c2)c(=O)n(-c2ccccc2)n1C: 190 nM (active)

The value of max dye-equivalent concentration measured for the compound COc1ccccc1-c1nc(NCCNC(C)=O)c2ccccc2n1 turned out to be inactive

The value of max dye-equivalent concentration measured for the compound N#Cc1c(NC(=O)CSc2nc3ccccc3c(=O)n2Cc2ccco2)sc2c1CCCC2 turned out to be inactive

The value of max dye-equivalent concentration measured for the compound CCC[C@H]1C(=O)N2C(N(C)C)=Nc3ccc(C)cc3N2C1=O turned out to be inactive

The value of max dye-equivalent concentration measured for the compound Cc1cc(C(=O)Nc2c(C)n(C)n(-c3ccccc3)c2=O)cs1 turned out to be inactive

The value of max dye-equivalent concentration measured for the compound CCOC(=O)CSc1nc2c(c(=O)n(Cc3ccccc3Cl)c(=O)n2C)n1C turned out to be inactive

The value of max dye-equivalent concentration measured for the compound CCOC(=O)C1=C(CNC2CCCCC2)NC(=O)NC1c1cc(C)ccc1C (stereo unspecified) turned out to be inactive

###

- assayProcedure: qHTS Assay for Spectroscopic Profiling in 4-MU Spectral Region
- protocolConditions: compound autofluorescence, 340/450 nm, 4-MU equivalents
Hit rate of the full screen: of about 59,000 compounds, about 6,200 (11%) were called active. Another 9% or so got no clear call; they are omitted. Rule as the data show it: active = max dye-equivalent concentration above about 10 nM; inconclusive = mostly about 1.1 nM to 9.6 nM; inactive = weaker than that. Shown is part of a subset that was picked to be rich in actives.
Respond using exactly one of the listed classes: active, inactive

- O=C(c1cc(C(F)(F)F)cc(C(F)(F)F)c1)N1CCC[C@@]2(CCN(c3ccccn3)C2)C1: inactive
- O=C(c1cccs1)N1CCN(C(=O)N2CCOCC2)CC1: inactive
- O=C(COC(=O)CCC(=O)c1cccs1)NCc1ccco1: inactive
- Cc1cccc(NC(=O)C2CCCN2S(=O)(=O)c2ccc(F)cc2)c1C (centres undefined): inactive
- O=C(CC1Nc2ccccc2NC1=O)Nc1ccccc1 (centres undefined): active

Q: Name the outcome recorded for CCc1c(C)nc(N)n2c(SCC(=O)N3CCN(c4ccccc4)CC3)nnc12 in the assay.
A: inactive

###

- assayProcedure: qHTS Assay for Spectroscopic Profiling in 4-MU Spectral Region
- protocolConditions: compound autofluorescence, 340/450 nm, 4-MU equivalents; hits give high values
In all, about 59,000 compounds went through this assay and about 6,200 (11%) were called active. About 9% were inconclusive and are not listed. Shown is part of a subset that was picked to be rich in actives.
metricName: max dye-equivalent concentration

Answered examples (5):
• COC(=O)c1ccc(N(CC(=O)NC2CCCC2)C(=O)CNC(=O)c2ccco2)cc1 = inactive
• O=C(c1c(Cl)nc2sccn12)N1CCCc2ccccc21 = inactive
• O=C(CNS(=O)(=O)c1ccc(Br)s1)NCc1ccc2c(c1)OCO2 = inactive
• CC(NC(=O)CSc1nc2c(cc1C#N)CN(C)CC2)c1ccccc1 (stereo unspecified) = 22 nM (active)
• CCOc1cc(-c2nc3cc(C)ccn3c2NCC2CCCO2)ccc1O (stereo unspecified) = 68 nM (active)

The value of max dye-equivalent concentration measured for the compound C[C@@H]1CC[C@H]2[C@H](C)[C@H]3[C@H](C[C@H]4[C@@H]5CC=C6C[C@@H](O)CC[C@@]6(C)[C@@H]5C[C@@H](O)[C@]34C)N2C1 turned out to be inactive

The value of max dye-equivalent concentration measured for the compound COc1ccc(S(=O)(=O)N2CCCC(C(=O)N3CCN(C)CC3)C2)cc1C (stereo unspecified) turned out to be inactive

The value of max dye-equivalent concentration measured for the compound O=C(NC1CC2CCCC(C1)N2C(=O)N1CCCCC1)C1CCCCC1 (stereo unspecified) turned out to be inactive

The value of max dye-equivalent concentration measured for the compound COCCn1c(=O)c(CCc2ccccc2)nc2cncnc21 turned out to be 83 nM (active)

The value of max dye-equivalent concentration measured for the compound Cn1c(Cc2csc(N)n2)nnc1SC/C=C/c1ccccc1 turned out to be inactive

The value of max dye-equivalent concentration measured for the compound O=C(O)[C@@H](O)Cc1ccccn1 turned out to be inactive

The value of max dye-equivalent concentration measured for the compound O=C(Oc1ccc(-c2nc(-c3ccccn3)no2)cc1)c1ccccc1 turned out to be inactive

The value of max dye-equivalent concentration measured for the compound O=c1c(-c2ccc(F)cc2)nc2cnc(N3CCNCC3)nc2n1Cc1cccs1 turned out to be 15 nM (active)

The value of max dye-equivalent concentration measured for the compound COc1ccc(-c2nc(-c3ccccc3)no2)c(OC)c1 turned out to be inactive

The value of max dye-equivalent concentration measured for the compound COC(=O)c1nc(NC(=O)c2ccc(Cl)cc2)n[nH]1 turned out to be inactive

###

- assayProcedure: qHTS Assay for Spectroscopic Profiling in 4-MU Spectral Region
- protocolConditions: compound autofluorescence, 340/450 nm, 4-MU equivalents
The whole screen tested about 59,000 compounds, of which about 6,200 (11%) were called active. Roughly 9% stayed inconclusive and do not appear here. Rule as the data show it: active = max dye-equivalent concentration above about 10 nM; inconclusive = mostly about 1.1 nM to 9.6 nM; inactive = weaker than that. Only a selection was taken, and actives are over-represented in it overall.
Respond using exactly one of the listed classes: T (active), F (inactive)

Here are 2 compounds together with their reported answers.
- O=C(COc1cccc(-n2cnnn2)c1)NCCC1=CCCCC1: F
- Cc1nc2c(c(=O)n1Cc1ccco1)c1nc3ccccc3nc1n2Cc1ccccc1: T

Q: Name the outcome recorded for CCOC(=O)c1c(NC(=O)c2cccs2)sc(C)c1C in the assay.
A: T

Q: Name the outcome recorded for CCOC(=O)CSc1nnc(CNC(=O)c2cccs2)n1-c1ccccc1 in the assay.
A: F

Q: Name the outcome recorded for COc1ccccc1NC(=O)CSc1nc2sc(C)c(C)c2c(=O)n1Cc1ccco1 in the assay.
A: F

Q: Name the outcome recorded for COCCCn1c2nc3ccccc3nc2c2c(=O)n(Cc3ccc(Cl)cc3)c(C)nc21 in the assay.
A: T

Q: Name the outcome recorded for COC(=O)c1c(NC(=O)CSc2nncs2)sc2c1CCCCC2 in the assay.
A: F

Q: Name the outcome recorded for O=c1c2ccccc2oc2nc(C3CCCCC3)n(Cc3ccco3)c(=O)c12 in the assay.
A: F

Q: Name the outcome recorded for COC(=O)c1c(NC(=O)c2cccs2)sc2c1CCCC2 in the assay.
A: T

Q: Name the outcome recorded for CCOCC(=O)Nc1sc2c(c1C(=O)OCC)CCCC2 in the assay.
A: F

Q: Name the outcome recorded for Cn1c(COc2ccc(Cl)cc2)nc2ccccc2c1=O in the assay.
A: F

###

- assayProcedure: qHTS Assay for Spectroscopic Profiling in 4-MU Spectral Region
- protocolConditions: compound autofluorescence, 340/450 nm, 4-MU equivalents; hits give high values
The whole screen tested about 59,000 compounds, of which about 6,200 (11%) were called active. Another 9% or so got no clear call; they are omitted. The sample holds actives, similar compounds and a random draw of the others, so the mix is not that of the screen.
metricName: max dye-equivalent concentration

Answered examples (4):
* COCCNC(=O)CSc1nc2c(n1-c1ccccc1)CCCC2 | inactive
* COCCCNC(=O)CSc1nc2ccc(N3CCOCC3)cc2c(=O)n1CCc1ccccc1 | 54 nM (active)
* CCCCn1c(SCC(=O)NCCc2ccc(OC)c(OC)c2)nc2c1c(=O)n(C)c(=O)n2C | inactive
* Fc1ccc(-c2nnc3sc(-c4ccc5c(c4)OCO5)nn23)cc1 | 26 nM (active)

Here's the next entry for you.
The value of max dye-equivalent concentration measured for the molecule CCCCn1c(SCC(=O)NCC2CCCO2)nc2ccc(N3CCOCC3)cc2c1=O (stereo unspecified) turned out to be 62 nM (active)

###

- assayProcedure: qHTS Assay for Spectroscopic Profiling in 4-MU Spectral Region
- protocolConditions: compound autofluorescence, 340/450 nm, 4-MU equivalents
In all, about 59,000 compounds went through this assay and about 6,200 (11%) were called active. Not shown: some 9% with an inconclusive outcome. Cut-off read from the data, not from the text of the source: active = max dye-equivalent concentration above about 10 nM; inconclusive = mostly about 1.1 nM to 9.6 nM; inactive = weaker than that. The entries come from a sample that favours actives as a whole.
Respond using exactly one of the listed classes: YES (active), NO (inactive)

Here are 6 compounds together with their reported answers.
• O/N=C(\c1ccc2c(c1)OCCO2)C1CCCCC1 = NO
• CCOc1ccc(NCCC(=O)c2ccc3c(c2)OCO3)cc1 = NO
• O=C(O)c1cscn1 = NO
• Cc1ccn2cc(-c3nonc3C)cc2c1 = NO
• Cc1cc(C)nc(N2CCN(c3ncnc4c3oc3ccccc34)CC2)n1 = NO
• COc1cc(-c2nnc(Cn3cc(C(F)(F)F)ccc3=O)o2)cc(OC)c1OC = NO

Q: Name the outcome recorded for COC(=O)c1ccccc1NC(=O)Cn1nc(C(F)(F)F)c2c1CCC2 in the assay.
A: NO

Q: Name the outcome recorded for O=C(Nc1ccncc1)c1c(F)cccc1F in the assay.
A: NO

Q: Name the outcome recorded for Cn1c(=O)n(C)c2cc(C(=O)Nc3ccc4c(c3)OCO4)ccc21 in the assay.
A: NO

Q: Name the outcome recorded for CN1CCN(CCCNC(=O)c2cc3c(=O)oc4ccccc4c3s2)CC1 in the assay.
A: NO

Q: Name the outcome recorded for CCOC(=O)CCCNC(=O)CN1C(=O)NC(CCc2ccccc2)C1=O (centres undefined) in the assay.
A: NO

Q: Name the outcome recorded for O=C(Nc1cnn(Cc2ccc(Cl)cc2)c1)C1CCCC1 in the assay.
A: NO

Q: Name the outcome recorded for Cc1nc(NCCN)c(C#N)c2c1COC(C)(C)C2 in the assay.
A: YES

Q: Name the outcome recorded for COc1ccc2c(c1)CCc1c(C(=O)Nc3c(C)n(C)n(-c4ccccc4)c3=O)noc1-2 in the assay.
A: NO

Q: Name the outcome recorded for Cc1cc(OCC(=O)O)c(Cl)cc1Cl in the assay.
A: NO

Q: Name the outcome recorded for O=C(O)c1ccc(NC(=O)C2CCCCC2)cc1 in the assay.
A: NO

Q: Name the outcome recorded for O=C(NCc1ccco1)c1cnn2c(C(F)(F)F)cc(-c3ccco3)nc12 in the assay.
A: YES

Q: Name the outcome recorded for COc1ccccc1Nc1ncnc2c1oc1ccccc12 in the assay.
A: YES

Q: Name the outcome recorded for CCOC(=O)c1cc(NC(=O)SCC(=O)O)c(C)nc1C in the assay.
A: NO

Q: Name the outcome recorded for COc1ccccc1CNc1ncnc2ccc(-c3ccc4c(c3)OCO4)cc12 in the assay.
A: NO

Q: Name the outcome recorded for COc1ccc2c(c1OC)C(=O)OC2c1c(O)nc(SC)n(-c2ccccc2)c1=O (centres undefined) in the assay.
A: NO

Q: Name the outcome recorded for O=C(CSc1nc(-c2ccco2)cc(C(F)(F)F)n1)N1CCc2ccccc2C1 in the assay.
A: NO

Q: Name the outcome recorded for O=C(NCc1ccco1)c1cc(-c2cccnc2)nc2ccc(Cl)cc12 in the assay.
A: NO

Q: Name the outcome recorded for CCOC(=O)c1cc(-c2nnc(-c3cc(OC)c(OC)c(OC)c3)o2)c(C)nc1C in the assay.
A: YES
